- PROCEDURE_TEXT: RP, Waters ACQUITY UPLC BEH Shield RP18, 150 × 3 mm, 1.7 µm, 40 °C, 0.5 mL/min, estimated dead time 1.4 min; A: water + 0.1% formic acid; B: acetonitrile + 0.1% formic acid; gradient (min/%B) 0/0 9.91/26 18.51/65 18.76/100 20.76/100
- RECORDED_CONDITIONS: stereoisomer not certain
OUTCOME_MEASURE: LC retention time (min)

I. CCCOC(=O)c1cc(O)c(O)c(O)c1
II. O=C(O)c1ccc(O)c(O)c1
In: For the pair I and II , which member has the lower LC retention time number? # respond with the chosen item's label
Out: II
(II: 7.05 min, I: 13.8 min)

a. Oc1cc(O)c2c(c1)OC(c1ccc(O)c(O)c1)C(O)C2c1c(O)cc(O)c2c1OC(c1ccc(O)c(O)c1)C(O)C2 (stereo not given)
b. O=C1c2c(O)cc(O)cc2OC(c2ccc(O)cc2)C1O (stereo not given)
In: I need your help: which of the pair a , b has higher LC retention time? Reply briefly: the label of your chosen item.
Out: b
(b: 14.8 min, a: 10.2 min)
